# IC50 (µg/mL), neutralization of pseudovirus per record follows
Target: HIV-1 Env of isolate MGRM-G-014 (subtype G), on pseudovirus (HIV-1)
Test: cell-based or functional assay

| BINDER | OBS_VALUE |
| --- | --- |
| PGT-135 (antibody, V domains shown) VH: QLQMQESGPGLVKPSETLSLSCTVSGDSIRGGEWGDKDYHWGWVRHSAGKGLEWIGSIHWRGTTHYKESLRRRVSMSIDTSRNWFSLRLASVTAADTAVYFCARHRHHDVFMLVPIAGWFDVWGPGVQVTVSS VL: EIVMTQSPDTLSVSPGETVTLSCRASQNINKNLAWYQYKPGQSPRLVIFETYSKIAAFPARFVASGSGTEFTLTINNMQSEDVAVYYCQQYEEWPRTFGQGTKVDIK | > 50 µg/mL |
| PGT-130 (antibody, V domains shown) VH: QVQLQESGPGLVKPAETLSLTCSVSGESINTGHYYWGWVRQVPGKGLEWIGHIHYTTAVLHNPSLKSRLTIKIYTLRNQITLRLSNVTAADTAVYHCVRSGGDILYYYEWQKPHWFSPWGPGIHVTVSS VL: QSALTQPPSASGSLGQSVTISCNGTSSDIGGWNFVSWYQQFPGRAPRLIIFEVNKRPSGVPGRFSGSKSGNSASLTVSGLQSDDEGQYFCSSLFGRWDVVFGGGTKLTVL | 2.23 µg/mL |

Incoming: Field request: IC50 (µg/mL), neutralization of pseudovirus | item: PGT-137 (antibody, V domains shown) VH: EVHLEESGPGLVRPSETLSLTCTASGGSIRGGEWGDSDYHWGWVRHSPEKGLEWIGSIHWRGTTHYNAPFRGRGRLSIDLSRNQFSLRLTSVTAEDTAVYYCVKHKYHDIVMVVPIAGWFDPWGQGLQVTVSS VL: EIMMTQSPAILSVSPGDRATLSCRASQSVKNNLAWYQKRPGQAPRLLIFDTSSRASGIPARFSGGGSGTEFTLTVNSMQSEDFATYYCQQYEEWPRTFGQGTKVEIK
Outgoing: > 50 µg/mL
